System: NCI-H520
measurement-description: relative viability (nuclei count vs DMSO), 5 days (fraction); higher = more cells survive
stated-conditions: first compound 0.8 µM
metric: relative viability
Give the figure by itself; no unit, no explanation.

Field: example entries. Status: answers known.
>  <molecule>
O=c1[nH]c2ccccc2n1C1CCN(CCCC(c2ccc(F)cc2)c2ccc(F)cc2)CC1 [Pimozide] + COc1cccc2cc(-c3nc([C@H]4CC[C@H](C(=O)O)CC4)n4ncnc(N)c34)[nH]c12 [OSI-027] (partner 0.5 µM)

>  <relative viability>
0.235

$$$$
>  <molecule>
O=c1[nH]c2ccccc2n1C1CCN(CCCC(c2ccc(F)cc2)c2ccc(F)cc2)CC1 [Pimozide] + C[C@@H](Oc1cc(-c2cnn(C3CCNCC3)c2)cnc1N)c1c(Cl)ccc(F)c1Cl [Crizotinib] (partner 1 µM)

>  <relative viability>
0.702

$$$$
>  <molecule>
O=c1[nH]c2ccccc2n1C1CCN(CCCC(c2ccc(F)cc2)c2ccc(F)cc2)CC1 [Pimozide] + N=C(N)NC(=N)NCCc1ccccc1 [Phenformin] (partner 250 µM)

>  <relative viability>
0.613

$$$$

Next up:
Which measured relative viability belongs to O=c1[nH]c2ccccc2n1C1CCN(CCCC(c2ccc(F)cc2)c2ccc(F)cc2)CC1 [Pimozide] + COc1cc2c(Oc3ccc(NC(=O)C4(C(=O)Nc5ccc(F)cc5)CC4)cc3F)ccnc2cc1OCCCN1CCOCC1 [Foretinib] (partner 0.25 µM) , tested on NCI-H520?
0.618
